- Test system: HOP-62 NSCLC
- assay explanation: NCI tumour cell line growth inhibition, 48 h
In this section, each of the molecules is paired with its reported TGI.

C=C=C(CC)C(C(=O)OC)N(CC)CC (configuration not stated)    > 100 µM
O=C1C(NCCc2ccc(O)c(O)c2)=CC(=O)c2ncccc21    49.9 µM

Quick check: TGI of O=C1C[C@@H]2C(COC(=O)c3ccccc3)N(OCc3ccccc3)C[C@@H]2O1 (some centres not stated) ?
> 100 µM

Suppose we examine the molecule "COc1ccc2c(c1OC)C1=C(C2=O)c2cc3c(cc2CCN1)OCO3" ; what TGI value has been reported?
> 100 µM

Would you kindly share the measured TGI for "N=c1nnc(=O)c2c(s1)-n1ncc(C(=O)O)c1NN2" ?
> 100 µM

Given "O=c1nc(Nc2cccc(Cl)c2)oc2cc(Cl)oc(=O)c12" , state its recorded TGI.
31.4 µM

Tell me the measured TGI of CC(C(=O)ON1C(=O)CCC1=O)c1ccc(C(=O)c2ccccc2)s1 (configuration not stated) , please.
> 100 µM
